- System: CQR P. falciparum Dd2
- assay_overview: microbe, parasite or virus in culture
- Type: cell-based, Plasmodium falciparum
- conditions: second value of cell
Square brackets hold non-standard residues; d marks the D form. Peptide text beside a SMILES is read from it. Orn = NCCC[C@H](N)C(=O)O
readout: Resistance Index IC50Dd2/IC50D10
The answer should be written as a number, with no unit following it.

INPUT: Consider the compound shown here: CC(C)C[C@@H]1NC(=O)[C@H](CCCN)NC(=O)[C@H](C(C)C)NC(=O)[C@H](Cc2c[nH]c3ccccc23)NC(=O)[C@H](CCC(N)=O)NC(=O)[C@H](CC(N)=O)NC(=O)[C@@H](Cc2c[nH]c3ccccc23)NC(=O)[C@H](Cc2c[nH]c3ccccc23)NC(=O)[C@@H]2CCCN2C(=O)[C@@H](Cc2ccccc2)NC1=O [TpcC, tryptocidine C] (cyclo(L[dF]PW[dW]NQWV[Orn])) What is its recorded Resistance Index IC50Dd2/IC50D10?
OUTPUT: 9

INPUT: Return reported Resistance Index IC50Dd2/IC50D10; argument: CC(C)C[C@@H]1NC(=O)[C@H](CCCN)NC(=O)[C@H](C(C)C)NC(=O)[C@H](Cc2ccccc2)NC(=O)[C@H](CCC(N)=O)NC(=O)[C@H](CC(N)=O)NC(=O)[C@@H](Cc2ccccc2)NC(=O)[C@H](Cc2ccccc2)NC(=O)[C@@H]2CCCN2C(=O)[C@@H](Cc2ccccc2)NC1=O [PhcA, phenycidine A] (cyclo(FV[Orn]L[dF]PF[dF]NQ))
OUTPUT: 10

INPUT: So what's the measured Resistance Index IC50Dd2/IC50D10 for this one? CCN(CC)CCCC(C)Nc1ccnc2cc(Cl)ccc12 (stereo not shown) [CQ, chloroquine]
OUTPUT: 7

###

- assay_overview: Toxicity to COS-1 cells, CellTiter Blue viability
- Format: cell-based
- conditions: 24 h, resazurin (CellTiter Blue), read-out: Toxicity LC50, COS Cells
Square brackets hold non-standard residues; d marks the D form. Peptide text beside a SMILES is read from it. Orn = NCCC[C@H](N)C(=O)O
readout: CC50 (µM)
# value in µM; strip the unit string

INPUT: Which measured CC50 value corresponds to CC(C)C[C@@H]1NC(=O)[C@H](CCCN)NC(=O)[C@H](C(C)C)NC(=O)[C@@H]2CCCN2C(=O)[C@@H](Cc2ccccc2)NC(=O)[C@H](CC(C)C)NC(=O)[C@H](CCCN)NC(=O)[C@H](C(C)C)NC(=O)[C@@H]2CCCN2C(=O)[C@@H](Cc2ccccc2)NC1=O [GS, gramicidin S, reference compound] (cyclo(V[Orn]L[dF]PV[Orn]L[dF]P)) ?
OUTPUT: 9

###

- Test system: CQI P. falciparum D10
- assay_overview: microbe, parasite or virus in culture
- Format: cell-based, Plasmodium falciparum
- conditions: second value of cell
Square brackets hold non-standard residues; d marks the D form. Peptide text beside a SMILES is read from it. Orn = NCCC[C@H](N)C(=O)O
readout: Selectivity Index IC50D10/IC50 (COS cells)
Lab note: record just the number, no unit beside it.

INPUT: Consider the compound shown here: CC(C)C[C@@H]1NC(=O)[C@H](CCCN)NC(=O)[C@H](C(C)C)NC(=O)[C@H](Cc2c[nH]c3ccccc23)NC(=O)[C@H](CCC(N)=O)NC(=O)[C@H](CC(N)=O)NC(=O)[C@@H](Cc2c[nH]c3ccccc23)NC(=O)[C@H](Cc2c[nH]c3ccccc23)NC(=O)[C@@H]2CCCN2C(=O)[C@@H](Cc2ccccc2)NC1=O [TpcC, tryptocidine C] (cyclo(L[dF]PW[dW]NQWV[Orn])) What is its recorded Selectivity Index IC50D10/IC50 (COS cells)?
OUTPUT: 238

INPUT: // Selectivity Index IC50D10/IC50 (COS cells) lookup, key: CC(C)C[C@@H]1NC(=O)[C@H](CCCN)NC(=O)[C@H](C(C)C)NC(=O)[C@@H]2CCCN2C(=O)[C@@H](Cc2ccccc2)NC(=O)[C@H](CC(C)C)NC(=O)[C@H](CCCN)NC(=O)[C@H](C(C)C)NC(=O)[C@@H]2CCCN2C(=O)[C@@H](Cc2ccccc2)NC1=O [GS, gramicidin S, reference compound] (cyclo(V[Orn]L[dF]PV[Orn]L[dF]P))
OUTPUT: 6

INPUT: Selectivity Index IC50D10/IC50 (COS cells) lookup needed for CC(C)C[C@@H]1NC(=O)[C@H](CCCN)NC(=O)[C@H](C(C)C)NC(=O)[C@H](Cc2ccccc2)NC(=O)[C@H](CCC(N)=O)NC(=O)[C@H](CC(N)=O)NC(=O)[C@@H](Cc2ccccc2)NC(=O)[C@H](Cc2ccccc2)NC(=O)[C@@H]2CCCN2C(=O)[C@@H](Cc2ccccc2)NC1=O [PhcA, phenycidine A] (cyclo(FV[Orn]L[dF]PF[dF]NQ)) , thanks.
OUTPUT: 154

INPUT: // returns reported Selectivity Index IC50D10/IC50 (COS cells) for input CC(C)C[C@@H]1NC(=O)[C@H](CCCN)NC(=O)[C@H](C(C)C)NC(=O)[C@H](Cc2ccc(O)cc2)NC(=O)[C@H](CCC(N)=O)NC(=O)[C@H](CC(N)=O)NC(=O)[C@@H](Cc2ccccc2)NC(=O)[C@H](Cc2ccccc2)NC(=O)[C@@H]2CCCN2C(=O)[C@@H](Cc2ccccc2)NC1=O [TrcA, tyrocidine A] (cyclo(V[Orn]L[dF]PF[dF]NQY))
OUTPUT: 51
